# System: RPMI-8226 leukemia
# measurementProtocol: NCI tumour cell line growth inhibition, 48 h; in the data active means GI50 below about 0.43 µM; inactive means the rest
Please reply with one of these outcomes: active, inactive

-- ask I'd appreciate the recorded outcome for CCCCCCCCNC(C)C(O)c1ccc(SC(C)C)cc1 (stereo unspecified) from this test.
-- reply inactive

-- ask I'd appreciate the recorded outcome for CCSc1ccc([C@@H]2[C@@H](N)C(=O)N2c2cc(OC)c(OC)c(OC)c2)cc1 from this test.
-- reply active

====

Please respond with reported TGI for every item in the list.
# System: SK-MEL-5 melanoma
# measurementProtocol: NCI tumour cell line growth inhibition, 48 h

In the examples that follow, each entry is paired with its recorded TGI.
| molecule | TGI |
| --- | --- |
| Cc1cn([C@@H]2C[C@H](CO)[C@@H]2O)c(=O)[nH]c1=O | > 100 µM |
| O=c1[nH]c(=O)n(COCc2ccccc2)c2ccccc12 | > 100 µM |
| COc1cc(O)cc(O)c1C(=O)CC(Cl)(Cl)Cl | > 100 µM |

List reported TGI for each of these molecules:
1. COc1ccc(-n2cc(-c3cc(OC)c(OC)c(OC)c3)[nH]c2=S)cc1Cl
2. Fc1ccc([C@@H]2CCNC[C@H]2COc2ccc3c(c2)OCO3)cc1
3. O=C(Nc1ccc(Nc2ccncc2)cc1)c1ccc(Nc2ccnc3ccc([N+](=O)[O-])cc23)cc1[N+](=O)[O-]
4. CC1=NN(C(=O)Cc2ccccc2)C(=O)/C1=C\c1ccccc1O
5. CC#CC#C/C=C1\C=CC2(OC=CC2OC(C)=O)O1 (configuration not stated)

-- reply
1: > 100 µM; 2: 17 µM; 3: > 100 µM; 4: > 100 µM; 5: 36.8 µM

List reported TGI for each of these molecules:
1. Cn1nc2ccc3nccc(NCCNCCO)c3c2n1
2. Cn1c(COC(=O)NC2CCCCC2)c(COC(=O)NC2CCCCC2)c2ccc3cc(C=O)ccc3c21
3. COC12C=CC(CC1)C(C)(C)C2OS(C)(=O)=O (configuration not stated)
4. C[C@@]12C[C@@H](c3ccccc3O1)N1Cc3ccccc3CSC1=N2

-- reply
1: > 100 µM; 2: > 100 µM; 3: > 100 µM; 4: > 100 µM

List reported TGI for each of these molecules:
1. O=C1NC(=O)[C@@H](c2c[nH]c3ccccc23)[C@@H]1c1c[nH]c2ccccc12
2. O=C(Oc1ccc2c(-c3ccccc3)c(C(=O)Nc3ccc(Cl)cc3)c(=O)oc2c1)c1ccccc1
3. CN(C(=O)C12C3C4C1C1C2C3C41C(O)C(C)(C)C)C(C)(C)C (configuration not stated)
4. CCC(=O)N1C(=O)C(CC)(CC)C(=O)N1C(=O)CC
5. C1=CN2C[n+]3ccc4ccccc4c3N=C2c2ccccc21

-- reply
> 25 µM
> 100 µM
> 100 µM
> 100 µM
1.5 µM
